From: patent US20240425512A1

test system: AGS gastric cancer cell line with KRAS G12D mutation; assay: Proliferation inhibition on RAS cell lines measured by CTG (CellTiter Glo), AGS; assay type: cell-based; settings: Homo sapiens, 120 h, Table 1, AGS cells, incubated for 5 days
pIC50: −log10 of the molar value.
MEASURED ATTRIBUTE: pIC50

{"SMILES STR": "CCc1c(F)ccc2cc(O)cc(-c3ncc4c(N5CCCCCN5)nc(OC[C@@]56CCCN5C[C@H](F)C6)nc4c3F)c12", "pIC50": "> 7.00"}
{"SMILES STR": "C#Cc1c(F)ccc2cc(O)cc(-c3ncc4c(N5CCCCCN5)nc(OC[C@@]56CCCN5C[C@H](F)C6)nc4c3F)c12", "pIC50": "> 7.00"}

# input molecule: CCc1c(F)ccc2cc(O)cc(-c3ncc4c(N5CCOCCN5)nc(OC[C@@]56CCCN5C[C@H](F)C6)nc4c3F)c12 ; wanted: its pIC50
> 7.00

----------
system: NCI-H441 lung cancer cell with KRAS G12V mutation; experiment: Proliferation inhibition on RAS cell lines measured by CTG, NCI-H441; type: cell-based; conditions: Homo sapiens, NCI-H441, 144 h, Table 2; NCI-H441 cells, incubated for 6 days, CellTiter Glo
MEASURED ATTRIBUTE: IC50

// known answers, use as guide
{"COMPOUND": "C#Cc1c(F)ccc2cc(O)cc(-c3ncc4c(N5CCCCN5C(=O)OC(C)(C)C)nc(OC[C@@]56CCCN5C[C@H](F)C6)nc4c3F)c12", "IC50": "100 to 1000 nM"}
{"COMPOUND": "C#Cc1c(F)ccc2cc(O)cc(-c3ncc4c(N5CCCCCN5)nc(OCC56CCCN5CC(=C)C6)nc4c3F)c12 (centres unmarked)", "IC50": "100 to 1000 nM"}
{"COMPOUND": "C#Cc1c(F)ccc2cc(O)cc(-c3ncc4c(N5CCCCCCN5)nc(OC[C@@]56CCCN5C[C@H](F)C6)nc4c3F)c12", "IC50": "100 to 1000 nM"}
{"COMPOUND": "C#Cc1c(F)ccc2cc(O)cc(-c3ncc4c(N5CCCN5)nc(OC[C@@]56CCCN5C[C@H](F)C6)nc4c3F)c12", "IC50": "1000 to 10000 nM"}

Give the reported IC50 for C#Cc1c(F)ccc2cc(OC(=O)C(C)C)cc(-c3ncc4c(N5CCCCCN5)nc(OC[C@@]56CCCN5C[C@H](F)C6)nc4c3F)c12 (system: NCI-H441 lung cancer cell with KRAS G12V mutation).
< 100 nM

----------
Tested on: NCI-H441 lung cancer cell with KRAS G12V mutation
Assay: Proliferation inhibition on RAS cell lines measured by CTG, NCI-H441
Format: cell-based
Details: Table 1; NCI-H441 cells, incubated for 6 days, CellTiter Glo; read-out: IC50 (NCI-H441^h)
Procedure: […] The proliferation inhibitory effect of the compounds on various mutations was evaluated by determining the proliferation inhibitory activity of the compounds on these cell lines. […] The cell suspensions were added to 384- or 96-well plates (384-well plate: 50 μL; 96-well plate: 100 μL) except for peripheral wells. […] The plates were placed into Victor NIVO or ENVIDION reader plates, and XLFit was utilized to plot the pharmacodynamic inhibition curve and calculate the IC50 value. […]
pIC50: −log10 of the molar value.
MEASURED ATTRIBUTE: pIC50

# input compound: CCc1c(F)ccc2cc(O)cc(-c3ncc4c(N5CC(C)(O)CCN5)nc(OCC56CCCN5CC(F)C6)nc4c3F)c12 (single isomer, unassigned) ; wanted: its pIC50
6.00 to 7.00
